So I've got IC50 readings for UniProtKB Q9WTR4, take a look.
Sequence (Q9WTR4 whole entry): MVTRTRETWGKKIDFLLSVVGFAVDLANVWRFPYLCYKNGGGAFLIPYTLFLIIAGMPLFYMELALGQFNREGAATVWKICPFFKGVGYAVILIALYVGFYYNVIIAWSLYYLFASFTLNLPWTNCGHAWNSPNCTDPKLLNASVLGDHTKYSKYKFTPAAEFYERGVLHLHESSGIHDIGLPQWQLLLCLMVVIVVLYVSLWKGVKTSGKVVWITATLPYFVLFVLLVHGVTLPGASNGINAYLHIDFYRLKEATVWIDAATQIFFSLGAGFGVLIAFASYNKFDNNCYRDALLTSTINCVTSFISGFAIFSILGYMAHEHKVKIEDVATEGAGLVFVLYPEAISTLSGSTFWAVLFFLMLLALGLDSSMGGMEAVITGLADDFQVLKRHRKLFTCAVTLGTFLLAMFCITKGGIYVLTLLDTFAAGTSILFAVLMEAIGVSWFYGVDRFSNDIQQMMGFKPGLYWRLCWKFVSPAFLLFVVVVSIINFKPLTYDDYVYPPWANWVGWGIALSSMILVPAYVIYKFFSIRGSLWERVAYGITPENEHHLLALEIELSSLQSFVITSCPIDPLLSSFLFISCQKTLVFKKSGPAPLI
A bare number is not enough; add the unit after it.

Answered cases to consult:
Smi	Readout Value
Ic1ccc(CN2CCC(CCOC(c3ccccc3)c3ccccc3)CC2)cc1	1150 nM
C=Cc1ccc(CN2CCC(CCOC(c3ccccc3)c3ccccc3)CC2)cc1	715 nM
CC#Cc1ccc(CN2CCC(CCOC(c3ccccc3)c3ccccc3)CC2)cc1	1170 nM
COc1cccc(CN2CCC(CCOC(c3ccccc3)c3ccccc3)CC2)c1	472 nM
C#Cc1ccc(CN2CCC(CCOC(c3ccccc3)c3ccccc3)CC2)cc1	760 nM
Oc1cccc(CN2CCC(CCOC(c3ccccc3)c3ccccc3)CC2)c1	678 nM

Here are 2 compounds. What values of IC50 were reported for them?
1. C=C(C)c1ccc(CN2CCC(CCOC(c3ccccc3)c3ccccc3)CC2)cc1
2. Oc1ccc(CN2CCC(CCOC(c3ccccc3)c3ccccc3)CC2)cc1

Solution:
1. 832 nM
2. 3340 nM
